// data source = the DeepSol protein solubility set

assay-method-text: soluble on expression in E. coli; label from the status in PepcDB or PDB records
measurement-label: soluble on expression in E. coli

Field: example entries. Status: answers known.
[[record]]
residue_sequence = "MANDDLQQRLDKGMYGTPLVNPEEQHKYMGTFRERCRLSMTVAEMKDAQNQKHLLEELAKHPEVTVLLNGEISSDLQSTYIKLLNQHGANFKIVNNFVENNPDSLGLLLAEKHAVDEPVIDVTEKYPQATETPKEEPTAKKSFWQKLFHS"
observed = "not soluble"

[[record]]
residue_sequence = "MGSDKIHHHHHHMNILVDLTQIPIQKVGVGVYAKETFKFPNEDANELFFLLQDDDNDLRSTFLKSKIILVKSKFFRFFFCRFLLEQFYIPFLCYKYKINILHSLHYSFPIFLFKVKRIVTIHDLTFFIHPSVHTFIKRYYFRLFIKLACRYADRLICVSESTKKDLERICGRRSVSIDVIPLSCSPKMQVGEQELELVKKKFGVVSQYMLFIGTLEPRKNILNLINAFYKFSQKNRDYSLVIIGKKGWFYESIFKLVEELHLERSVVFTGFVTTKEKFILLSGAHSFIYPSIYEGFGLPVLEAITYGIPTITSKLSSLPEVAGNAALYINPYDVQSISDAIESVNCDEETRRKLIKNSEKQRLKYSWKKTANLTYSLYNRCGSI"
observed = "not soluble"

[[record]]
residue_sequence = "MGSDKIHHHHHHMRKILLPYPAGCATGTFVRRVKRFSVEMTRDGESVWVHSNNSGSMLGLLRPGATMLASPAANPDRKLAWTHEAMRCHGDGPQGFWVGVNTSVPNRMVEAAFHAGRLPWAQGYDTFRRERKRGDSRLDARLDGPGLPTLWVECKNVTMVEDDVACFPDAVTERGSKHLREMMDIVSRGERAAMFYLVQRPDGLCFGPADVIDPQYAALFWEAVDAGVEMYPHRGIVSPVGIDLSGVLPLTRCR"
observed = "not soluble"

[[record]]
residue_sequence = "MGSDKIHHHHHHMARLPLKQFLADNPKKVLVLDGGQGTELENRGIKVANPVWSTIPFISESFWSDESSANRKIVKEMFNDFLNAGAEILMTTTYQTSYKSVSENTPIRTLSEYNNLLNRIVDFSRNCIGEDKYLIGCIGPWGAHICREFTGDYGAEPENIDFYQYFKPQLENFNKNDKLDLIGFETIPNIHELKAILSWDESILSRPFYIGLSVHEHGVLRDGTTMEEIAQVIKDLGDKINPNFSFLGINCVSFNQSPDILESLHQALPNMALLAYPNSGEVYDTEKKIWLPNSDKLNSWDTVVKQYISSGARIIGGCCRTSPKDIQEISAAVKKYT"
observed = "not soluble"

[[record]]
residue_sequence = "MGRARDAILDALENLTAEELKKFKLQAATHQGSGAAPAGIQAPPQSAAKPGLHFIDQHRAALIARVTNVEWLLDALYGKVLTDEQYQAVRAEPTNPSKMRKLFSFTPAWNWTCKDLLLQALRESQSYLVEDLERS"
observed = "soluble"

[[record]]
residue_sequence = "MGSDKIHHHHHHMVVNALAVGCGLNVAPAQAHKFASNYHCFMVRRFDRTNAGRRLHFASAMTLTRHQDGEDASTGVSYLELADVLIRHGAQTNTDLKELWSRIVFNILVSNTDDHLRNHGYILIPGKGWRLSEAYDLNPVARSDGLKLNITENDNALDLELAREVAEYFRLGLTEADDIIANFRGIVSQWRIIAERLRLPGREQELMAEAFRGAI"
observed = "not soluble"

[[record]]
residue_sequence = "MSLGGSIKSPQSLTIDIIKRDYLNFKNKKILSFKDIKPKYDSQSDYHGNAIYYFMFYNKLKEFENIQNEKFKIKKEILKSYIIIIDEINRGNVSKIFGELITLIEPSKRIGEKEELKVTLPYSGEKFGVPKNVYIIGTMNTADRSITSLDTALRRRFEFVEMMPDVSKLSMDCEGINLQELLKAINTRIEYLLDREKTIGHAFFVSVENLEDLKKVFQNKIIPLLQEYFYNDYALINAVLNDNDMIFEDKKDDKYLQKIKNLDSVNSERSIYNIASFDDKIWDKIEIYQAIYNDEIANKLKNEGHHHHHH"
observed = "not soluble"

[[record]]
residue_sequence = "MSLIRSMTAYARREIKGEWGSATWEMRSVNQRYLETYFRLPEQFRSLEPVVRERIRSRLTRGKVECTLRYEPDVSAQGELILNEKLAKQLVTAANWVKMQSDEGEINPVDILRWPGVMAAQEQDLDAIAAEILAALDGTLDDFIIARETEGQALKVLIEQRLEGVTAEVAKVRAHMPEILQWQRERLIAKLEDAQVQLENNRLEQELVLLAQRIDVAEELDRLEAHAKETYNILKKKEAVGRRLDFMMQEFNRESNTLASKSINAEVTNSAIELKVLIEQMREQIQNIEEGHHHHHH"
observed = "soluble"


May I ask what soluble on expression in E. coli has been recorded for MIIRIKHYGEVKIEDSKNLLLNLIENRIGIDNICNGKGTCGKCKVRFRQGVPEATSADLRYLSVEELEEGVRLACQVKPQKGMEIDVTLSNSFDRKNTVLEHHHHHH ? not soluble

And then GPGSMTHDSRTPQGKSRVSGGSSCFPSGYLNNESFDLNSETDHVSANSSTCHPAESYHLLLPRELQTPAQHFTTPEIPEISSHSPLCSALFSSVTEMQHQSVLEVGVASDQGIRSSMEDEHVTVVEPEVCFFGIYDGHGGRQCAEYVRARLHEITLAHECLKTDPRKAISDAFAQVEREFLGQNTNDMSSAGCVCAAAVVQGSVLTVGNVGDCEVVLARAGQPVLLTVKHNPSCNDAEATRVKKAGGCIFNCRVGHPRFNPRMCSLAVSRAVGDAGFKLEEYTNGKPSGIIAVADTSEVLLAKDDEFLILACDGLWDTMSYAEAVELATAYMASGADANSVADQLVGEALRRGTRDNVTAIFVRLGGSAQAGLGDANK , what is it? not soluble

And then MGSDKIHHHHHHMYKLVIIEDEHIIRKWLRYAIDYKALDILVIGEAKDGKEGAVLIKESQPDIVLTDINMPIMTAFDMFEVTKDQTYAKIILSGYADFPNARSAIHYGVLEFLTKPIEKAALWECLQTIIAKIEKQKGSNQKTDACVYIPLPQMTDQIPEVVKDILEWVHAHFQDKISTSRLAHDLGYSESYIYQNIKKHLQMPLSDYINQYRINQAIQLMQQEPDLMVYEIAQAVGIYDYRYFDRVFKKYLGQTVKAFKEEHFMKDTDRSKPC , what is it? not soluble

====

assay-method-text: soluble on expression in E. coli; label from the status in PepcDB or PDB records
measurement-label: soluble on expression in E. coli

Field: example entries. Status: answers known.
[[record]]
residue_sequence = "GDSFYIRTHFEYEKESPYGLSFNKGEVFRVVDTLYNGKLGSWLAIRIGKNHKEVERGIIPNKNRAEQLASVQYVQTKFPAYERVVLREAGFLRPVTIFGPIADVAREKLAREEPDIYQIAKSEPRDAGTDQRSSGIIRLHTIKQIIDQDKHALLDVTPNAVDRLNYAQWYPIVVFLNPDSKQGVKTMRMRLCPESRKSARKLYERSHKLRKNNHHLFTTTINLNSMNDGWYGALKEAIQQQQNQLVWVSEG"
observed = "soluble"

[[record]]
residue_sequence = "MKDPLLNSLIYVSRYYGLANSPEALVNGLPLSDGKLTPFLLPRAAERAGLVAKENRAELEKISSLILPAILVLKGGDSCVLNSINMETREAEVTTLESGMVPISIPLEDLLEQYTGRYFLVKKQFRFDERSPEVLKTKEGHWFWSTLWQSKRIYRD"
observed = "not soluble"

[[record]]
residue_sequence = "MGSDKIHHHHHHMTQKTLPPLNWLRAFEVSARYLNFTHAAEELHLTQGAVSQQIRHLESQLGVALFKRLPRGLGLTEEGQSYLPVVQDAISRLAVGTNEIFGQRQRRPLKVRGSLSFLHFWLAPRLADFRRSHPQVDIRYISNLWVKELDAEDDLEIRWGSGQWAGVEAQRLTRDMLVPVCAPALLAGCPLREPRDLARVPLLHVLGYEEGWGYWLERVGADQVDSSSGLQFDTLVSTLRMAELGLGVALARSSLVEDLLQEGRLVAPFAQRIEASESFFLVRGLGEALSPDAQAFSHWLVAMAHR"
observed = "not soluble"

[[record]]
residue_sequence = "MWKTASDKGLGHLLRDVWSLLNEEERELLDKEIQPFPCKKASTVFSEGDIPNNLFYLYEGKIKILREGVYGRFHISRIVKPGQFFGMRPYFAEETCSSTAIAVENSKVLAIPVEAIEALLKGNTSFCRYFLKALAKELGYAERRTVTLTQKHVRGRLAETLLILKENFGFENDGATLSIYLSREELATLSNMTVSNAIRTLSTFVSERMLALDGKRIKIIDCDRLQKTARSG"
observed = "soluble"

[[record]]
residue_sequence = "MGSDKIHHHHHHMIGDMNELLLKSVEVLPPLPDTVSKLRKYVSEANSNIETMKVAEIISSDPLMTAKLLQLANSPYYGFTREITTINQVITLLGVGNIINIVMADSIRDNFKIDVSPYGLNTQNFLKTCNEEATFIANWLNDEDKKLSHLLVPCAMLLRLGIVIFSNFLIQNHKDKDFLAFLNKNENLALAENEFLGVDHISFLGFLLHRWNFDDVLIESICFVRTPHAAREKVKKSAYALAITDHLFAPHDGSSPFNAKAAVALLKEAKTQGINFDLNNLLSKLPNKAKENLNKED"
observed = "soluble"


May I ask what soluble on expression in E. coli has been recorded for MSILHMPLKIKDITIKNRIMMSPMCMYSASTDGMPNDWHIVHYATRAIGGVGLIMQEATAVESRGRITDHDLGIWNDEQVKELKKIVDICKANGAVMGIQLAHAGRKCNISYEDVVGPSPIKAGDRYKLPRELSVEEIKSIVKAFGEAAKRANLAGYDVVEIHAAHGYLIHEFLSPLSNKRKDEYGNSIENRARFLIEVIDEVRKNWPENKPIFVRVSADDYMEGGINIDMMVEYINMIKDKVDLIDVSSGGLLNVDINLYPGYQVKYAETIKKRCNIKTSAVGLITTQELAEEILSNERADLVALGRELLRNPYWVLHTYTSKEDWPKQYERAFKKHHHHHH ? soluble

And then SDLPRHIAVLCDGNRRWARSAGYDDVSYGYRMGAAKIAEMLRWCHEAGIELATVYLLSTENLQRDPDELAALIEIITDVVEEICAPANHWSVRTVGDLGLIGEEPARRLRGAVESTPEVASFHVNVAVGYGGRREIVDAVRALLSKELANGATAEELVDAVTVEGISENLYTSGQPDPDLVIRTSGEQRLSGFLLWQSAYSEMWFTEAHWPAFRHVDFLRALRDYSAR , what is it? soluble

And then MKTINSVDTKEFLNHQVANLNVFTVKIHQIHWYMRGHNFFTLGEKMDDLYSEFGEQMDEVAERLLAIGGSPFSTLKEFLENASVEEAPYTKPKTMDQLMEDLVGTLELLRDEYKQGIELTDKEGDDVTNDMLIAFKASIDKHIWMFKAFLGKAPLE , what is it? soluble

And then AIAPTGEDNIVVPPAFDGESVSKNKEIYVTFGVDVDAVAGWLGSYGGEDSPFDISRGICAAEVGVPRLLELFRRFDLKTTWFLPGHSVESFPLQMRQVVAAGHEVGAHGYSHENPVRMTPKQEEDVLALSVQILENLTGKKPKGYVAPWWELSAATPELLLRYGFKYDHSQGHHDFQPYYARTAEKWTNIDYSKPARDWMKPLDRGQSVDLVEIPANWYVDDLPPMMFIKSAPNSHGFMNPRDIEDLWRDQFEWVYREYNFAVFPITIHPDVSGRPQVLLMLERFISYIRRFPGVHWTTMEEVAQIFRNKQPFLNA , what is it? soluble

And then MSLAASKGNLLSPDRILTVAHRGASGYVPEHTILSYETAQKMKADFIELDLQMTKDGKLIVMHDEKLDRTTNGMGWVKDHTLADIKKLDAGSWFNEAYPEKAKPQYVGLKVPTLEEVLDRFGKHANYYIETKSPDTYPGMEEKLIASLQKHKLLGKHSKPGQVIIQSFSKESLVKVHQLQPNLPTVQLLEAKQMASMTDAALEEIKTYAVGAGPDYKALNQENVRMIRSHGLLLHPYTVNNEADMHRLLDWGVTGVFTNYPDLFHKVKKGYEGHHHHHH , what is it? soluble

And then MSEGSKQNKKSTDAFSKYMRKLFGIQEITESQREYIEKLERELESAKGTLSTREEKEMIRGLVKFGNIMVKQIMCPRMDMAAVDIALNYEQLQEYISTCGFSRIPVYKESADKIEGVLNIKDLFPFYNKEKDFNWQQLIRTVEFIPETKLIEELLREFQLKHLHMAIVVDEYGGTAGLITMEDVIEEIVGDIHDEYDDDEKPYAQLSDTSYLFEGKISLVDFYKAIELDKDIFDEVKGESETLGGLLLNINSDLPRLGDEIIYEGYVFKIDAVNSKRILRVKVTVPENSENEK , what is it? soluble
